Answer each item with its documented inhibition of aggregation.
Experiment: inhibitors of mutant huntingtin aggregation, primary screen, imaging, exon1htt(103Q)mCFP cells, high-content imaging (AID 483);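 note: compound exposure lasted 3 days before fixation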
Conditions: exon1htt(103Q)mCFP cell line, aggregate imaging, at 2 µM; active compounds read high
Give bare numbers, in %.

Some entries whose results are on file:
Cc1ccc(-n2ncc3c(=O)n(CC(=O)NCc4ccco4)cnc32)cc1 | 9.4
CCn1c(SCC(=O)C(C)(C)C)nnc1-c1cnccn1 | 9.1

Respectfully, I request inhibition of aggregation for each entry included below.
1. O=C(c1ccco1)N1CCN(CCCCN2C(=O)c3ccccc3C2=O)CC1
2. CS(=O)(=O)C1=C(O)C(=O)N(c2ccccc2)C1c1ccccc1 (stereo unspecified)
3. CCSc1nncn1/N=C/c1ccc(OC)c(OC)c1
4. O=C(O)CCc1ccc(-c2cccs2)o1

Result ::
[16, -10.4, 32.4, -10.2]

Respectfully, I request inhibition of aggregation for each entry included below.
1. COc1ccc(N2C(=O)CC(N3CCCC4CCCCC43)C2=O)cc1 (stereo unspecified)
2. CCCn1cc(C(CC(=O)O)C(=O)O)c2ccccc21 (stereo unspecified)
3. COc1ccc(S(=O)(=O)N2CCC(C(=O)Nc3c(F)cccc3F)CC2)cc1
4. Cc1cccc2cc(C#N)c(SCCN3CCCCC3)nc12
5. COc1ccc(C2CC(c3ccc(Cl)cc3Cl)Nc3nc(N)nn32)cc1 (stereo unspecified)

Result ::
3.7
11
7
-42.5
-1.8
